molecular target: Receptor-interacting serine/threonine-protein kinase 2 (Homo sapiens); test: Inhibition of human RIPK2 assessed as inhibition of autophosphorylation incubated for 45 to 60 mins in presence of 32P-gamma-ATP by immunoprecipitation analysis
Sequence (O43353 whole entry): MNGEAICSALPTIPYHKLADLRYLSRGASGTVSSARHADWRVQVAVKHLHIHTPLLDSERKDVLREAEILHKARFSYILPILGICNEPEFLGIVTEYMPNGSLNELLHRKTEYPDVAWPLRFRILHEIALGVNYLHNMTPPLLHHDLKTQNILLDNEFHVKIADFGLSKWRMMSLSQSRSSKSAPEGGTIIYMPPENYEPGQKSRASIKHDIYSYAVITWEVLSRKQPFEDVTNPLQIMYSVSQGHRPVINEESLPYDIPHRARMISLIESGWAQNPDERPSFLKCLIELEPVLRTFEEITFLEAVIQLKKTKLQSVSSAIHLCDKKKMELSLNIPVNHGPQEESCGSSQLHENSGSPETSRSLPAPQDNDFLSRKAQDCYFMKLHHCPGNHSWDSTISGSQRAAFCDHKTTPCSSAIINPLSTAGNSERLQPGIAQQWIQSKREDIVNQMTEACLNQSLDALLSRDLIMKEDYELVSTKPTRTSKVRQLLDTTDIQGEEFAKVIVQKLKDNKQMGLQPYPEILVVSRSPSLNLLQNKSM
experimentalEndpoint: IC50 (nM)
Just the number please, in nM, no unit attached.

Task item: GET /values?readout=IC50&system=Receptor-interacting serine/threonine-protein kinase 2 (Homo sapiens)&item= Cc1ccc(C(=O)Nc2cccc(-c3nccn3C)c2)cc1NC(=O)c1ccccc1
Reply: 10

====

experiment: Induction of apoptosis in human GBM1 cells incubated for 48 hrs by immunofluorescent analysis; type: functional, cell-based; conditions: GBM1, 48 h
experimentalEndpoint: EC50
Write the numeric value and follow it with the unit.

Task item: Entry Cc1n(Cc2ccc(F)cc2)c2c([n+]1Cc1ccccc1)C(=O)c1ccccc1C2=O has what EC50?
Reply: 68 nM

These data points were gathered from ChEMBL document CHEMBL5370637.
